- assayed_target: ALK2 (R258G)
pIC50: −log10 of the molar value.
reported_metric: pIC50

(Q) Name the reported pIC50 value associated with the compound COc1cc(-c2cncc(-c3ccc(N4CCN(C)CC4)cc3)c2C)cc(OC)c1C(N)=O [Compound 26d]
(A) > 8.70

----------
Parameter 'readout' = IC50; parameter 'system' = ALK2 (WT).

Illustrative cases are given below, each with its answer.
>>> observed_value("COc1ccc(-c2cncc(-c3ccc(N4CCNCC4)cc3)c2C)cc1C(N)=O [Compound 14a]")
"> 1000 nM"
>>> observed_value("COc1c(C(N)=O)csc1-c1cncc(-c2ccc(N3CCNCC3)cc2)c1C")
"> 1000 nM"
>>> observed_value("COc1cc(-c2cncc(-c3ccc(N4CCN(C)CC4)cc3)c2C)cc(OC)c1C(N)=O [Compound 26d]")
"< 3 nM"
>>> observed_value("COc1cc(-c2cncc(-c3ccc(N4CCNCC4)cc3)c2C)ccc1C(=O)N(C)C")
"> 1000 nM"

For the next question, use this compound.
(Q) Can you share its IC50? I mean this compound: CNC(=O)c1ccc(-c2cncc(-c3ccc(N4CCNCC4)cc3)c2C)cc1OC
(A) > 1000 nM

----------
- method: in vitro
- recorded_conditions: human, Caco-2, pH 7.4
reported_metric: efflux ratio

(Q) # efflux ratio lookup, item COc1cc(-c2cncc(-c3ccc(N4CCN(C)CC4)cc3)c2C)cc(F)c1C(N)=O [Compound 26a]
(A) < 3

----------
Provide the reported remaining at 1 h, 1 μM of each item.
- method: human liver microsomal stability assay
- Assay type: in vitro ADME
- recorded_conditions: pooled liver microsomes, pH 7.4, human liver microsomes, 60 min, 37 °C, read-out: HLM % Remaining at 1h
Please make sure the unit comes right after the number.

>>> observed_value("COc1cc(-c2cncc(-c3ccc(N4CCNCC4)cc3)c2C)cc(OC)c1C(N)=O [Compound 8c]")
"88.8%"
>>> observed_value("COc1cc(-c2cncc(-c3ccc(N4CCN(C(C)C)CC4)cc3)c2C)cc(OC)c1C(N)=O [Compound 26e]")
"98%"

Below: the item to evaluate.
(Q) What measured remaining at 1 h, 1 μM goes with COc1cc(-c2cncc(-c3ccc(N4CCN(C)CC4)cc3)c2C)cc(OC)c1C(N)=O [Compound 26d] ?
(A) 81.4%

----------
- assayed_target: ALK2 (Homo sapiens)
- Construct: host or cells: HEK-293
- Sequence (Q04771 21-509): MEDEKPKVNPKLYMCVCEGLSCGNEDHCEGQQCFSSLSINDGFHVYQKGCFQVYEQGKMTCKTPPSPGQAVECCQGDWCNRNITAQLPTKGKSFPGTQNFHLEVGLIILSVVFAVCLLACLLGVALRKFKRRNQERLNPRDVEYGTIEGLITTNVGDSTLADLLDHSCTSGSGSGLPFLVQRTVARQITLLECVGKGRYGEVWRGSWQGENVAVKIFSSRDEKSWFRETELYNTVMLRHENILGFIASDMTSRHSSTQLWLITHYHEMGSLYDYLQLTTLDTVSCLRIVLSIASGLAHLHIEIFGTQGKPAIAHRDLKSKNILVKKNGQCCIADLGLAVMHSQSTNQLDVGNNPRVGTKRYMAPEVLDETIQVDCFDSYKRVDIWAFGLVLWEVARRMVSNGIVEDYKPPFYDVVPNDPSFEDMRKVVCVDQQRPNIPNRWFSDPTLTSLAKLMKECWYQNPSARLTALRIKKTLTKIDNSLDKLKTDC
- method: NanoBRET target engagement assay in HEK293 cells
- Assay type: cell-based
- recorded_conditions: DLA ALK5 IC50 / NanoBRET ALK2 IC50
Kindly state Cell-based Fold Selectivity for each of the entries shown.

Return reported Cell-based Fold Selectivity values for all items listed beneath this line.
1. Cc1c(-c2ccc(C(N)=O)cc2)cncc1-c1ccc(N2CCNCC2)cc1 [Compound 20b]
2. COc1c(-c2cncc(-c3ccc(N4CCNCC4)cc3)c2C)csc1C(N)=O
3. COc1cc(C(N)=O)cc(-c2cncc(-c3ccc(N4CCNCC4)cc3)c2C)c1 [Compound 14b]

(A)
[">1", ">1", ">8"]

Your task in this section: give Cell-based Fold Selectivity for each listed record.
1. COc1cc(-c2cncc(-c3ccc(N4CCNCC4)cc3)c2C)cc(Cl)c1C(N)=O [Compound 20e]
2. Cc1c(-c2ccc(N3CCNCC3)cc2)cncc1-c1ccc(C(N)=O)c(F)c1 [Compound 20d]
3. COc1ccc(-c2cncc(-c3ccc(N4CCNCC4)cc3)c2C)cc1C(N)=O [Compound 14a]

(A)
[">54", ">4", ">7"]

Could you report Cell-based Fold Selectivity for every entry in the following list?
1. COCc1cc(-c2cncc(-c3ccc(N4CCNCC4)cc3)c2C)ccc1C(N)=O [Compound 20c]
2. COc1cc(-c2cncc(-c3ccc(N4CCNCC4)cc3)c2C)sc1C(N)=O

(A)
1. >1
2. >1
